Please provide measured abundance fitness for the entries that follow.
B1: Gamma-crystallin S, residues 96 to 176; numbered along this chain, P22914 (parent)
chain: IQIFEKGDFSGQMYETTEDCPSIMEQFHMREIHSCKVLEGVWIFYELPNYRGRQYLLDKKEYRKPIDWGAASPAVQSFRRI

Variants of: B1
assayNotes: abundance fitness (aPCA) (normalised: wild type 0, dead -1); higher = more abundant; growth selection in yeast, the domain comes from the species named
testParameters: Homo sapiens
Number, no unit, nothing else.

Need abundance fitness, item S72L
0.002

Queued: T16W
0.078

Follow-up item: A70P
0.042

Now give it for K64T too.
-0.164

Ok, now D67W
0.053
